Ends that are not written are not given here.
Observed Cell viability, HEK293T, Data1, system human embryonic kidney cells (HEK293T). Further: test concentration or dose not given here.
assay readout: Cell viability, HEK293T, Data1

             substance  experimental_result
 0    TQEVVN [TaPep25]               103.15
 1   HGGDDLG [TaPep28]                96.62
 2    FTEELE [TaPep32]               105.14
 3    SNDPVA [TaPep71]               102.11
 4    EFPEQN [TaPep17]                94.45
 5    AEDNSL [TaPep43]                96.72
 6    FPEQQD [TaPep16]               105.99
 7    AQSSLS [TaPep40]               103.15
 8     DQKVLA [TaPep3]                93.79
 9    EQGEQN [TaPep15]                98.80
10   EEVPITD [TaPep46]                99.94
11    AQDDLP [TaPep20]               100.69
12   PTELESD [TaPep41]                94.54
13   APEELDA [TaPep36]               103.44
14    DAELDK [TaPep34]                98.04
15     KADGNR [TaPep4]               102.11
16   SLEYEFK [TaPep38]                94.16
17   YDGTPLN [TaPep11]               107.03
18    EPKVLV [TaPep54]               103.15
19    SVLEFS [TaPep52]               102.87
20     VARLEA [TaPep9]               103.06
21  DFKEELPK [TaPep42]               101.45
22     KGYEAV [TaPep5]               101.17
23   LQPSLEH [TaPep59]               100.88
24    TAEQVA [TaPep33]                97.67
25   NNDDEES [TaPep50]               105.62
26   KNDESVD [TaPep48]               103.15
27     VAEDLL [TaPep8]               102.68
28    LQPDAGK [TaPep6]               101.83
29    AKDEKEL [TaPep1]               110.16
30   EDGPHGD [TaPep45]                98.99
31    EVGMQE [TaPep56]               104.86
32    LQDVVE [TaPep24]               102.40
33   IAVPHEP [TaPep47]               104.67
34    NGDDEEG [TaPep7]                96.15
35   TIDDELR [TaPep26]                96.81
36    STGTIR [TaPep51]               100.60

---

In this section we review reported Cell viability, HEK293T, Data2 values for a set of substances.
- System: human embryonic kidney cells (HEK293T); further: test concentration or dose not given here
Ends that are not written are not given here.
assay readout: Cell viability, HEK293T, Data2

>>> df
           substance                             target_desc  experimental_result
0   EQPLQA [TaPep21]  human embryonic kidney cells (HEK293T)                95.58
1   FPEQQD [TaPep16]  human embryonic kidney cells (HEK293T)                97.00
2  KNDESVD [TaPep48]  human embryonic kidney cells (HEK293T)               102.59

---

- Test system: human umbilical vein endothelial cells (HUVEC); on Average cell viability, HUVEC: test concentration or dose not given here
Ends that are not written are not given here.
Simple rule here: Average cell viability, HUVEC less than 100 is y, otherwise n.

>>> df
            substance  class_label
 0  PTELESD [TaPep41]            n
 1   EPKVLV [TaPep54]            n
 2   PPLENT [TaPep39]            n
 3   SNDPVA [TaPep71]            y
 4    VARLEA [TaPep9]            y
 5   LQDVVE [TaPep24]            n
 6   DAELDK [TaPep34]            y
 7  YQAENKH [TaPep14]            y
 8  LQPSLEH [TaPep59]            n
 9  SLEYEFK [TaPep38]            n
10   NGDDEEG [TaPep7]            n
11   STGTIR [TaPep51]            n
12  NNDDEES [TaPep50]            n
13   AEDNSL [TaPep43]            n
14    KGYEAV [TaPep5]            n
15   EVGMQE [TaPep56]            n
16   DQEPVE [TaPep44]            n
17  YDGTPLN [TaPep11]            n
18  KNDESVD [TaPep48]            n
19    KADGNR [TaPep4]            n
20  TIDDELR [TaPep26]            n
21   TQEVVN [TaPep25]            y
22   TAEQVA [TaPep33]            n
23  HGGDDLG [TaPep28]            n
24  FEGDQDA [TaPep18]            n
25    VAEDLL [TaPep8]            n
26   EFPEQN [TaPep17]            y

---

Ends that are not written are not given here.
Observed Cell viability, HUVEC, Data1, system human umbilical vein endothelial cells (HUVEC).
assay readout: Cell viability, HUVEC, Data1

>>> print(df.to_string())
            substance                 assay_readout  experimental_result
 0  PTELESD [TaPep41]  Cell viability, HUVEC, Data1               108.17
 1    VAEDLL [TaPep8]  Cell viability, HUVEC, Data1               109.13
 2  LQPSLEH [TaPep59]  Cell viability, HUVEC, Data1                97.39
 3  YQAENKH [TaPep14]  Cell viability, HUVEC, Data1               102.42
 4   TDPELV [TaPep60]  Cell viability, HUVEC, Data1                91.72
 5   AQSSLS [TaPep40]  Cell viability, HUVEC, Data1               102.66
 6   FPEQQD [TaPep16]  Cell viability, HUVEC, Data1               102.74
 7  TIDDELR [TaPep26]  Cell viability, HUVEC, Data1               103.54
 8   AKDEKEL [TaPep1]  Cell viability, HUVEC, Data1                96.99
 9   VPDELN [TaPep23]  Cell viability, HUVEC, Data1                98.19
10    KGYEAV [TaPep5]  Cell viability, HUVEC, Data1               115.43
11  HGGDDLG [TaPep28]  Cell viability, HUVEC, Data1               105.77
12  YDGTPLN [TaPep11]  Cell viability, HUVEC, Data1               111.12
13   FTEELE [TaPep32]  Cell viability, HUVEC, Data1               111.20
14   DQEPVE [TaPep44]  Cell viability, HUVEC, Data1               108.41
15    KADGNR [TaPep4]  Cell viability, HUVEC, Data1               113.12
16  EEVPITD [TaPep46]  Cell viability, HUVEC, Data1               105.61
17  EDGPHGD [TaPep45]  Cell viability, HUVEC, Data1               103.46
18   TQEVVN [TaPep25]  Cell viability, HUVEC, Data1                90.21
19  SLEYEFK [TaPep38]  Cell viability, HUVEC, Data1               112.64
20  LGDDLVK [TaPep19]  Cell viability, HUVEC, Data1                92.52
21   YAGNAP [TaPep10]  Cell viability, HUVEC, Data1                99.31
